Each item that follows carries a reported inhibition rate (binding-inhibition % at 0.1 μM).
biological target: CXCR4 (Homo sapiens); construct: endogenous in cells; host or cells: MT-4 cells; assay: CXCR4-binding inhibition activity (125I-SDF-1α binding to MT-4 cells); settings: 0.1 μM test material, ligand 125I-SDF-1α, 2 hours under ice cold condition
# unit: % | format: bare number

See these solved cases before continuing.
>>> experimental_result("C[C@H](NC(=O)[C@H](CCCNC1CCCc2cccnc21)NC(=O)c1ccc(CNCc2ncc[nH]2)c2ccccc12)c1cccc2ccccc12 (stereo partly drawn) [Compound No. 57]")
97.8
>>> experimental_result("Cn1cccc1CNCCC[C@H](NC(=O)c1ccc(CNCc2ccccn2)cc1)C(=O)NCc1cccc2ccccc12 [Compound No. 5]")
26.4
>>> experimental_result("C[C@H](NC(=O)[C@H](CCCNC1CCCc2cccnc21)NC(=O)c1ccc(CNCc2ncc[nH]2)cc1)c1cccc2ccccc12 (stereo partly drawn) [Compound No. 106]")
100.0
>>> experimental_result("Cn1ccnc1CNCCC[C@H](NC(=O)c1ccc(CNCc2nccn2C)c2ccccc12)C(=O)NCc1cccc2ccccc12 [Compound No. 29]")
56.8
>>> experimental_result("NC(N)=NCCC[C@H](NC(=O)c1ccc(CNCc2ccccn2)cc1)C(=O)NCc1cccc2ccccc12 [Compound No. 43]")
43.6

Request: What inhibition rate (binding-inhibition % at 0.1 μM) value was documented for this compound, O=C(N[C@@H](CCCN[C@@H]1CCCc2cccnc21)C(=O)NCc1cccc2ccccc12)c1ccc(CNCc2ccccn2)c2ccccc12 [Compound No. 55] ?
Result: 94.6

====

molecular target: CXCR4 (Homo sapiens, UniProt P61073); construct: endogenous in cells; host or cells: MT-4 cells; test: CXCR4-binding inhibition activity (125I-SDF-1α binding to MT-4 cells); details: 0.1 μM test material, ligand 125I-SDF-1α, 2 hours under ice cold condition
Sequence (P61073 whole entry): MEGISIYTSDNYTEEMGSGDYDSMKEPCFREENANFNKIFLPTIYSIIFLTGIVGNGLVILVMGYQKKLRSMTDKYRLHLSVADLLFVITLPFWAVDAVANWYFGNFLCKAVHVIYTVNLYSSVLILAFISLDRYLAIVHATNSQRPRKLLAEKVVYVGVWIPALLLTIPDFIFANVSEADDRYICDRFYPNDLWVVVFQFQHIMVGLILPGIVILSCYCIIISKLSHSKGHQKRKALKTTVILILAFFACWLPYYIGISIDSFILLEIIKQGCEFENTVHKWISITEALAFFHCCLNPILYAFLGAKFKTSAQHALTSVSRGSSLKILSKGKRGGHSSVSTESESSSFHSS
Threshold rule: inhibition rate (binding-inhibition % at 0.1 μM) greater than or equal to 90% is Met; below that, Not met.

Below, 5 molecules whose answers are already recorded.
>>> class_label("O=C(N[C@@H](CCCNC1CCCc2cccnc21)C(=O)NCc1cccc2ccccc12)c1ccc(CNC2CCCc3cccnc32)c2ccccc12 (stereo partly shown)")
"Not met"
>>> class_label("O=C(N[C@@H](CCCNC1CCCc2cccnc21)C(=O)NCc1cccc2ccccc12)c1ccc(CNc2ccccn2)c2ccccc12 (stereo partly shown)")
"Not met"
>>> class_label("O=C(N[C@@H](CCNCc1ccccn1)C(=O)NCc1cccc2ccccc12)c1ccc(CNCc2ccccn2)cc1")
"Not met"
>>> class_label("C[C@H](NC(=O)[C@H](CCCNC(=N)N)NC(=O)c1ccc(CNCc2ncc[nH]2)cc1)c1cccc2ccccc12")
"Met"
>>> class_label("C[C@H](NC(=O)[C@H](CCCNCc1ccccn1)NC(=O)c1ccc(CNCc2ncc[nH]2)c2ccccc12)c1cccc2ccccc12")
"Not met"

Request: Tell me whether inhibition rate (binding-inhibition % at 0.1 μM) is at least 90% here: C[C@H](NC(=O)[C@H](CCCNC(=N)N)NC(=O)c1ccc(CNCc2ncc[nH]2)c2ccccc12)c1cccc2ccccc12
Result: Met

Request: And then O=C(N[C@@H](CCCNC1CCCc2cccnc21)C(=O)NCCc1c[nH]c2ccccc12)c1ccc(CNCc2ncc[nH]2)c2ccccc12 (stereo partly shown) , what is it?
Result: Not met

Request: And then C[C@@H](NC(=O)[C@H](CCCNC1CCCc2cccnc21)NC(=O)c1ccc(CNCc2ncc[nH]2)c2ccccc12)c1cccc2ccccc12 (stereo partly shown) , what is it?
Result: Not met

Request: And then O=C(N[C@@H](CCCNC1CCCc2cccnc21)C(=O)NCc1cccc2ccccc12)c1ccc(CNCc2ncc[nH]2)s1 (stereo partly shown) , what is it?
Result: Not met

Request: And then N=C(N)NCCC[C@H](NC(=O)c1ccc(CNCc2ncc[nH]2)cc1)C(=O)NCc1cccc2ccccc12 , what is it?
Result: Not met

Request: And then C[C@H](NC(=O)[C@H](CCCNC1CCCc2cccnc21)NC(=O)c1ccc(CNCc2ccccn2)cc1)c1cccc2ccccc12 (stereo partly shown) , what is it?
Result: Met

Request: And then C[C@H](NC(=O)[C@H](CCCNCc1nccn1C)NC(=O)c1ccc(CNCc2nccn2C)c2ccccc12)c1cccc2ccccc12 , what is it?
Result: Not met

====

target: CXCR4 (Homo sapiens); construct: endogenous in cells; host or cells: MT-4 cells; experiment: CXCR4-binding inhibition activity (125I-SDF-1α binding to MT-4 cells); conditions: 0.1 μM test material, ligand 125I-SDF-1α, 2 hours under ice cold condition
Each item that follows carries a reported inhibition rate (binding-inhibition % at 0.1 μM).
# unit: % | format: bare number

>>> experimental_result("N=C(N)NCCC[C@H](NC(=O)c1ccc(CNCc2ccccn2)c2ccccc12)C(=O)NCc1cccc2ccccc12")
88.1
>>> experimental_result("C[C@H](NC(=O)[C@H](CCCN=C(N)N)NC(=O)c1ccc(CNCc2ccccn2)cc1)c1cccc2ccccc12")
91.4
>>> experimental_result("C[C@H](NC(=O)[C@H](CCCNC1CCCc2cccnc21)NC(=O)c1ccc(CNCc2ccccn2)c2ccccc12)c1cccc2ccccc12 (stereo partly shown)")
90.7
>>> experimental_result("C[C@H](NC(=O)[C@H](CCCNC1=NCCN1)NC(=O)c1ccc(CNCc2ncc[nH]2)cc1)c1cccc2ccccc12")
75.7
>>> experimental_result("N=C(N)NCCC[C@H](NC(=O)c1ccc(CNCc2ncc[nH]2)c2ccccc12)C(=O)NCc1cccc2ccccc12")
95.8
>>> experimental_result("C[C@H](NC(=O)[C@H](CCCNC(=N)N)NC(=O)c1ccc(CNCc2nccn2C)c2ccccc12)c1cccc2ccccc12")
100.0
>>> experimental_result("C[C@H](NC(=O)[C@H](CCCNC1CCCc2cccnc21)NC(=O)c1ccc(CNCc2ccccn2)nc1)c1cccc2ccccc12 (stereo partly shown)")
78.0
>>> experimental_result("O=C(N[C@@H](CCCN[C@H]1CCCc2cccnc21)C(=O)NCc1cccc2ccccc12)c1ccc(CNCc2ccccn2)c2ccccc12")
91.9
>>> experimental_result("O=C(N[C@@H](CCCNC1CCCc2cccnc21)C(=O)NCc1cccc2ccccc12)c1ccc(CNCc2ccccn2)c2ccccc12 (stereo partly shown)")
90.0
>>> experimental_result("O=C(N[C@@H](CCCNC1CCCc2cccnc21)C(=O)NCc1cccc2ccccc12)c1ccc(CNCc2ncc[nH]2)c2ccccc12 (stereo partly shown)")
97.9

Request: What inhibition rate (binding-inhibition % at 0.1 μM) value was documented for this molecule, C[C@H](NC(=O)[C@H](CCCNC1CCCc2cccnc21)NC(=O)c1ccc(CNCc2nccn2C)cc1)c1cccc2ccccc12 (stereo partly shown) ?
Result: 96.5

Request: And then O=C(N[C@@H](CCCNC1CCCc2cccnc21)C(=O)NCc1cccc2ccccc12)c1ccc(CNCc2ccccn2)cc1 (stereo partly shown) , what is it?
Result: 75.1

Request: And then O=C(N[C@@H](CCCNCc1ccccn1)C(=O)NCc1cccc2ccccc12)c1ccc(CNCc2ccccn2)c2ccccc12 , what is it?
Result: 82.1

The reported measurements were obtained from patent US20040157818A1.
